Read-out: Cytochrome P450 3A4 (Homo sapiens)
experiment-summary: LTEA_HepaRG_CYP3A4: Life Technologies and Expression Analysis (LTEA) Assay for CYP3A4 using HepaRG (AID 2283487)
conditions-used: mRNA level, 48 h; actives raise or lower the signal
Activity calls are given as the source filed them. Rule for the calls: active = hit-call score of the fitted dose curve at least 0.9, where 1 is the maximum; inactive = score below 0.9.
endpoint-label: AC50

1. CCCCCCCCCCCCCCCCCC(=O)O = inactive
2. COc1cc(S(=O)(=O)O)c(C)cc1N=Nc1c(O)ccc2cc(S(=O)(=O)O)ccc12 = inactive
3. Clc1cc(Cl)c(Cl)cc1Cl = inactive
4. Cc1cc(NC(=O)C(=O)O)cc(C)c1Oc1ccc(O)c2c1CCC2 = 13.8 µM (active)
5. CC1(C)NC(=O)NC1=O = inactive
6. CC(=O)OCCOCCOCCOC(C)=O = inactive
7. FC(F)(F)C(F)(F)C(F)(F)C(F)(F)C(F)(F)C(F)(F)CCI = inactive
8. NS(=O)(=O)c1cc2c(cc1Cl)NCNS2(=O)=O = inactive
9. Nc1ccc2c(c1)C(=O)c1ccccc1C2=O = inactive
10. CC(=O)Oc1ccccc1C(=O)O = inactive
11. Cc1nc(C)nc(N2C[C@@H](C)N(c3ccnc([C@@H](C)O)n3)[C@@H](C)C2)n1 = inactive
12. NCCO = inactive
13. Cc1oc(-c2ccccc2)nc1CCOc1cccc2c1ccn2CCC(=O)O = 80.1 µM (active)
